Numbers sourced from BindingDB's records for doi:10.1021/jm801416q.

# Assay Procedure: Antagonist activity at human CCR1 in THP1 cells assessed as inhibition of MIP-1-alpha-induced chemotaxis after 3 hrs
Parameter: IC50

CN(Cc1ccc(Cl)cc1)C(=O)[C@H]1CCCN1C(=O)Nc1ccc(C(F)(F)F)cc1Cl : 0.035 µM
Cc1cc(C(F)(F)F)cc(C)c1NC(=O)N1CCC[C@@H]1C(=O)N(C)Cc1ccc(Cl)cc1 : 0.006 µM
COc1ccc(NC(=O)N2CCC[C@@H]2C(=O)N(C)Cc2ccc(Cl)cc2)cc1 : 0.44 µM
Cc1cc(C(F)(F)F)ccc1NC(=O)N1CCC[C@@H]1C(=O)N(C)Cc1ccc(Cl)cc1 : 0.016 µM
